Answer each item with its documented melting point.

compound | melting point
CS(=O)(=O)Nc1ccc(C(=O)c2ccc(Cl)cc2)cc1 | 198 to 200 °C
O=C(SC1CCN(C(C(=O)C2CC2)c2ccccc2F)CC1)c1ccccc1 (configuration not stated) | 55 to 59 °C

Record melting point per entry; entries follow.
1. CCOc1ccc(N=Cc2cc(OC)c(OC)c(OC)c2)cc1
2. CCCCC(C#N)(Cn1ccnc1)c1ccc(S(=O)c2ccccc2)cc1 (configuration not stated)
3. COc1cccc2c(=O)c(C=O)coc12

Result block:
["75 to 77 °C", "55 to 61 °C", "174 to 176 °C"]

---

Answer each item with its documented melting point.

Some solved cases for reference:
compound | melting point
CNC(=O)c1cccc(NC(=O)Cc2ccc3c(c2)CC(C)(C)O3)c1 | 92 to 93 °C
CCCN1C(=O)CC(C)(C)c2cc(C)c(-c3cc(C=O)ccc3OC(F)(F)F)cc21 | 219 to 223 °C
NS(=O)(=O)c1cc(C(=O)O)cc(SCc2ccsc2)c1Oc1ccccc1 | 222 to 224 °C
CCOC(=O)c1cc2ccc(C#N)cc2[nH]1 | 176 °C
CCCCCCCCC(CCCCCCCC)n1c2ccsc2c2sccc21 | 60 °C
CCCCCCCCCCCCCCCC(=O)OCC1OC(N2CNC(N)=NC2=O)CC1O (stereo unspecified) | 123 to 124 °C
C#CCNC(=O)N1CC(Oc2cccc(C(F)(F)F)c2)C1 | 105 to 106 °C
NS(=O)(=O)c1ccsc1C(=O)OC1COC1 | 158 to 160 °C
NC(=O)c1ncn2c(=O)n(Cc3ccccc3)nnc12 | 187 to 188 °C
O=c1[nH]cc(C2CCCCC2)c2ccccc12 | 111 to 112 °C

Record melting point per entry; entries follow.
1. COc1cc2ccc(C(=O)C(C)C)cc2cc1OC
2. O=C1C(c2cc3c(cc2O)OCCCO3)c2ccccc2N1C(c1ccccc1)c1ccccc1 (stereo unspecified)
3. COc1cc(OC)nc(NC(=O)NS(=O)(=O)c2c(OC)ccc3snnc23)n1
4. Cn1c(C(F)(F)F)ccc(-c2c(F)cc(Cl)c3oc(CO)cc23)c1=O
5. CC(=O)OC=C1CSC2C(NC(=O)Cc3ccccc3)C(=O)N2C1C(=O)OC(C)(C)C (stereo unspecified)
6. CC(=O)SCC(C(=O)N1CC2(C[C@H]1C(=O)O)C(=O)CCC2=O)C(F)(F)F (stereo partly specified)
7. O=C(O)c1cc(OCCCc2cc(-c3ccc(C(F)(F)F)cc3)no2)nn1-c1ccccc1

Result block:
1. 103 to 105 °C
2. 193 to 195 °C
3. 120 to 129 °C
4. 145 to 147 °C
5. 178 to 183 °C
6. 153 to 155 °C
7. 145 to 146 °C

Record melting point per entry; entries follow.
1. CC(=O)NCCCc1c[nH]c(-c2ccc(F)cc2)c1-c1ccncc1
2. COc1cc(OC)c(-c2cccs2)cc1/C=C/C(=O)c1cccc(C(=O)O)c1
3. COc1ccc(C(=O)C2=C(O)C(=O)N(c3nnc(C(F)(F)F)s3)C2c2ccc(C(C)(C)C)cc2)cc1 (stereo unspecified)
4. CCC(=O)c1cc(-c2ccc(OC)cc2)no1

Result block:
1: 218 to 220 °C; 2: 179 to 182 °C; 3: 271 °C; 4: 135 to 136 °C
